- target.under.test: BRD4 Bromodomain 1 (BRD4 BD1) (Homo sapiens)
- Construct: 44-168 and BRD4 BD2
- experiment.notes: AlphaScreen binding assay, BRD4 BD1
- setup.conditions: His-tagged BRD4 BD1 50 nM, biotinylated H4 (1-21) K5/8/12/16 tetra-acetylated peptide 50 nM, compounds listed under IC50 range headings
Parameter IC50: see the listing below.

{"columns": ["molecule", "IC50"],
 "data": [
  ["CC(=O)N1c2ccc(-c3cnn(C4CC4)c3)c(Oc3ccccc3)c2CCC1C (centres unmarked) [I-597]", "1 to 10 µM"],
  ["CC(=O)N1c2ccc(-c3cnn(CCS(C)(=O)=O)c3)c(OCC(C)C)c2CC[C@@H]1C [I-420]", "0.1 to 1 µM"],
  ["C[C@H]1CCc2c(ccc(-c3cnn(C4CCNCC4)c3)c2Oc2cc(F)cc(F)c2)N1C(=O)C1CC1 [I-183]", "0.1 to 1 µM"],
  ["CC(=O)N1c2ccc(-c3cnn(C4CC4)c3)c(Oc3ccccc3C#N)c2CC[C@@H]1C [I-153]", "0.1 to 1 µM"],
  ["COC(=O)N1c2ccc(-c3cnn(CCS(C)(=O)=O)c3)c(OCC3CCCC3)c2CC[C@@H]1C [I-459]", "0.1 to 1 µM"],
  ["CC(=O)N1c2ccc(-c3cnn(C4CC4)c3)c(OCCNS(C)(=O)=O)c2CC[C@@H]1C [I-382]", "0.1 to 1 µM"],
  ["COC(=O)N1c2ccc(-c3cnn(C4CC4)c3)c(Oc3ncc(F)cn3)c2CC[C@@H]1C [I-577]", "1 to 10 µM"],
  ["COC(=O)N1c2ccc(-c3cnn(C4CNC4)c3)c(Oc3cccc(F)c3C#N)c2CC[C@@H]1C [I-139]", "0.1 to 1 µM"]
]}

###

Parameter pIC50: see the listing below.
- target.under.test: BRD4 Bromodomain 1 (BRD4 BD1) (Homo sapiens, UniProt O60885)
- Construct: 44-168 and BRD4 BD2
- experiment.notes: AlphaScreen binding assay, BRD4 BD1
- setup.conditions: His-tagged BRD4 BD1 50 nM, biotinylated H4 (1-21) K5/8/12/16 tetra-acetylated peptide 50 nM, compounds listed under IC50 range headings
pIC50: −log10 of the molar value.

{"columns": ["molecule", "pIC50"],
 "data": [
  ["CC(=O)N1c2ccc(-c3cnn(C4CC4)c3)c(OCC(C)(F)F)c2CC[C@@H]1C [I-37]", "5.00 to 6.00"],
  ["C[C@H]1CCc2c(ccc(-c3cnn(C4CNC4)c3)c2Oc2cccc(F)c2F)N1C(=O)C1CC1 [I-268]", "6.00 to 7.00"],
  ["COC(=O)N1c2ccc(-c3cnn(C4CCNCC4)c3)c(Oc3ccccc3Cl)c2CC[C@@H]1C [I-160]", "6.00 to 7.00"],
  ["C[C@H]1CCc2c(ccc(-c3cnn(C4CCCS(=O)(=O)C4)c3)c2Oc2ccc(F)cc2)N1C(=O)C1CC1 (stereo partly drawn) [I-295]", "6.00 to 7.00"],
  ["COC(=O)N1c2ccc(-c3cnn(CC(C)(C)O)c3)c(OCC(=O)N3CCCC3)c2CC[C@@H]1C [I-464]", "5.00 to 6.00"],
  ["COC(=O)N1c2ccc(-c3cnn(C4CC4)c3)c(Oc3ncccc3C(F)(F)F)c2CC[C@@H]1C [I-565]", "5.00 to 6.00"],
  ["CCCOc1c(C2CCN(CC)CC2)ccc2c1CC[C@H](C)N2C(C)=O [I-358]", "≤ 5.00"],
  ["CC(=O)N1c2ccc(-c3cnn(C4CCNCC4)c3)c(Oc3ncc(F)cn3)c2CC[C@@H]1C [I-511]", "6.00 to 7.00"],
  ["COC(=O)N1c2ccc(-c3cnn(C4CCNCC4)c3)c(Oc3ccccn3)c2CC[C@@H]1C [I-96]", "6.00 to 7.00"],
  ["COC(=O)N1c2ccc(-c3cnn(C4CCNCC4)c3)c(Oc3cccc(F)c3F)c2CC[C@@H]1C [I-269]", "6.00 to 7.00"],
  ["CC(=O)N1c2ccc(-c3cccc(NS(C)(=O)=O)c3)c(OCC(=O)N(C)C)c2CC[C@@H]1C [I-491]", "5.00 to 6.00"],
  ["COC(=O)N1c2ccc(-c3cnn(CC(C)(C)O)c3)c(Oc3cnccn3)c2CC[C@@H]1C [I-559]", "5.00 to 6.00"],
  ["CC(=O)N1c2ccc(-c3cnn(C4CCNCC4)c3)c(Oc3ccnc(C(F)(F)F)n3)c2CC[C@@H]1C [I-515]", "5.00 to 6.00"],
  ["C[C@H]1CCc2c(ccc(-c3cn(C)nn3)c2Oc2ccccc2C#N)N1C(=O)C1CC1 [I-154]", "5.00 to 6.00"],
  ["CC(=O)N1c2ccc(-c3cnn(CCO)c3)c(OCC(C)C)c2CC[C@@H]1C [I-422]", "6.00 to 7.00"],
  ["COC(=O)N1c2c(F)cc(-c3cnn(C4CCNCC4)c3)c(Oc3ccccc3)c2CC[C@@H]1C [I-205]", "6.00 to 7.00"],
  ["C[C@H]1CCc2c(ccc(-c3cnn(C4CCNCC4)n3)c2Oc2ccccc2)N1C(=O)C1CC1 [I-311]", "> 7.00"],
  ["COC(=O)N1c2ccc(-c3cnn(C4CS(=O)(=O)C4)c3)c(Oc3ccc(F)cc3)c2CC[C@@H]1C [I-223]", "6.00 to 7.00"],
  ["C[C@H]1CCc2c(ccc(-n3cccn3)c2OC2CCC2)N1C(=O)C1CC1 [I-324]", "≤ 5.00"],
  ["CC(=O)N1c2c(F)cc(-c3cnn(C4CC4)c3)c(OC3CCC3)c2CC[C@@H]1C [I-73]", "6.00 to 7.00"],
  ["CC(=O)N1c2ccc(-c3cnn(C4CC4)c3)c(OCC(=O)N3CCCCC3)c2CC[C@@H]1C [I-8]", "6.00 to 7.00"],
  ["C[C@H]1CCc2c(ccc(-c3c[nH]nn3)c2Oc2ccccc2)N1C(=O)C1CC1 [I-187]", "6.00 to 7.00"],
  ["COC(=O)N1c2ccc(-c3cnn(C4CCNCC4)c3)c(Oc3ccc(C#N)cc3)c2CC[C@@H]1C [I-146]", "6.00 to 7.00"],
  ["COC(=O)N1c2ccc(-c3cnn(C4CCNCC4)c3)c(Oc3cnccn3)c2CC[C@@H]1C [I-526]", "5.00 to 6.00"],
  ["C[C@H]1CCc2c(ccc(-c3cnn(C4CCNCC4)c3)c2Oc2ccc(C#N)cc2F)N1C(=O)C1CC1 [I-152]", "6.00 to 7.00"],
  ["CC(=O)N1c2ccc(-c3cnn(C4CC4)c3)c(OCc3nc4ccccc4o3)c2CC[C@@H]1C [I-481]", "≤ 5.00"],
  ["COC(=O)N1c2ccc(-c3cnn(CCO)c3)c(Oc3ncc(C(F)(F)F)cc3F)c2CC[C@@H]1C [I-590]", "5.00 to 6.00"],
  ["COC(=O)N1c2ccc(-c3cnn(C4CCNCC4)c3)c(Oc3ccc(C(N)=O)cn3)c2CC[C@@H]1C [I-538]", "5.00 to 6.00"],
  ["CC(=O)N1c2ccc(-c3cnn(C4CC4)c3)c(OCC(C)C)c2CC[C@@H]1C [I-394]", "6.00 to 7.00"],
  ["CC(=O)N1c2ccc(-c3cccc(S(C)(=O)=O)c3)c(OCC(=O)N(C)C)c2CC[C@@H]1C [I-493]", "5.00 to 6.00"],
  ["COC(=O)N1c2ccc(-c3cnn([C@@H]4CCNC[C@@H]4F)c3)c(OC3CCC3)c2CC[C@@H]1C [I-361]", "> 7.00"],
  ["CC(=O)N1c2ccc(-c3cnn(C4CC4)c3)c(OC(CF)CF)c2CC[C@@H]1C [I-38]", "5.00 to 6.00"],
  ["CC(=O)N1c2ccc(-c3cnn(C4CC4)c3)c(Oc3nccs3)c2CC[C@@H]1C [I-83]", "5.00 to 6.00"]
]}

###

Parameter pIC50: see the listing below.
- target.under.test: BRD4 Bromodomain 1 (BRD4 BD1) (Homo sapiens, UniProt O60885)
- Construct: 44-168 and BRD4 BD2
- experiment.notes: AlphaScreen binding assay, BRD4 BD1
- setup.conditions: His-tagged BRD4 BD1 50 nM, biotinylated H4 (1-21) K5/8/12/16 tetra-acetylated peptide 50 nM, compounds listed under IC50 range headings
pIC50: −log10 of the molar value.
metric: pIC50

{"columns": ["compound", "metric", "assay.result"],
 "data": [
  ["C[C@H]1CCc2c(ccc(-c3ccn[nH]3)c2Oc2ccccc2)N1C(=O)C1CC1 [I-218]", "pIC50", "5.00 to 6.00"],
  ["COC(=O)N1c2ccc(-c3cnn(C4CC4)c3)c(OCCN3CCCC3=O)c2CC[C@@H]1C [I-25]", "pIC50", "5.00 to 6.00"],
  ["C[C@H]1CCc2c(ccc(-c3cnn(C4CCNCC4)c3)c2Oc2ncccc2C(F)(F)F)N1C(=O)C1CC1 [I-539]", "pIC50", "5.00 to 6.00"],
  ["C[C@H]1CCc2c(ccc(-c3cn(C4CCNCC4)nn3)c2OC2CCC2)N1C(=O)C1CC1 [I-310]", "pIC50", "6.00 to 7.00"],
  ["CC(=O)N1c2ccc(-c3cnn(C4CC4)c3)c(Oc3nccc(C(F)(F)F)n3)c2CC[C@@H]1C [I-85]", "pIC50", "5.00 to 6.00"],
  ["C[C@H]1CCc2c(ccc(-c3cn(C4CCNCC4)nn3)c2Oc2ccccc2)N1C(=O)C1CC1 [I-312]", "pIC50", "> 7.00"],
  ["COC(=O)N1c2ccc(-c3cnn([C@@H]4CCNC[C@H]4F)c3)c(OC3CCC3)c2CC[C@@H]1C [I-367]", "pIC50", "6.00 to 7.00"],
  ["COC(=O)N1c2ccc(-c3cnn(CCS(C)(=O)=O)c3)c(OC3CCC3)c2CC[C@@H]1C [I-444]", "pIC50", "6.00 to 7.00"]
]}
